Quick reference for Binding Signal with 30 sec Association (nm) among some binders
target: recombinant human GREM1 (hGREM1-His; C-terminal 10His tagged, R&D, #5190-GR) (human) (UniProt O60565); assay: BLI Octet, captured mAb, 100 nM GREM1
Sequence (O60565 other isoform, or with tags, fused parts or gaps limits assumed, form in doubt): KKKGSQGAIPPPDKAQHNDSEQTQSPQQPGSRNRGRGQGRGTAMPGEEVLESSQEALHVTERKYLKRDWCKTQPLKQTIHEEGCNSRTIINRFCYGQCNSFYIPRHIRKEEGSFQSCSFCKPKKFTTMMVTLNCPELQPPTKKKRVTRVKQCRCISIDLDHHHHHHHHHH
Please respond with the number in nm and leave the unit unwritten.

Use the examples below as a reference point.
{"columns": ["BINDER", "EXPERIMENTAL VALUE"],
 "data": [
  ["H4H2780N (antibody, human IgG4, V domains shown) VH: EVQLVESGGGLVKPGGSLRLSCAASGFTFSTYSMNWVRQAPGKGLEWVSSISSGSSYIYYTDSVKGRFTISRDNAKNSLYLQMNSLRAEDTAVYYCARFGSYYYFGFDVWGQGTTVTVSS VL: DIQMTQSPSSLSASVGDRVTITCRASQGISNYLAWYQQKPGKVPKLLIFSASTLQSGVPSRFSGSGSGPDFTLTVSSLQPEDVATYYCQKYNSAPFAFGPGTKVDIK", 0.13],
  ["H4H6260P (antibody, human IgG4, V domains shown) VH: QVQLVESGGGVVQPGRSLRLSCAASGFTFSTYGMHWVRQAPGKGLEWVAIIWYDGSNYYYADSVKGRFTISRDNSKNTLYLQMNSLRAEDTAVYYCAREDRNDVFDIWGQGTMVTVSS VL: EIVLTQSPATLSLSPGERATLSCRASQSVSSFLAWYQQKPGQAPRLLIYDSSNRATGIPARFSGSGSGTDFTLTISSLEPEDFAVYYCQQLSNWPPITFGQGTRLEIK", 0.24],
  ["H4H6251P (antibody, human IgG4, V domains shown) VH: QVQLVESGGGVVQPGKSLRLSCAASGFTFSRYGMHWVRQAPGKGLEWVAVIWYDGSNKYYADSVKGRFTISRDNSKNTLYLQMNSLRADDTAMYYCARDDYGDSPGFDFWGQGTLVTVSS VL: EIVMTQSPATLSVSPGERATLSCRASQSVSSNLAWYQQKPGQAPRLLIYDASTRATGIPARFSGTGSGTEFTLTISSLQSEDFALYYCQQYDDWPPWTFGQGTKVEIK", 0.27]
]}

[Q] Reported Binding Signal with 30 sec Association (nm), binder H4H6248P (antibody, human IgG4, V domains shown) VH: QVQLVESGGGVVQPGRSLRLSCAASGFTFSNYGMHWVRQVPGKGLEWVAVIWYDGSNKYYADSVKGRFTISRDNSKNTLYLQMNSVRAEDTAVYYCARDDYGDSPGFDYWGQGTLVTVSS VL: EIVMTQSPATLSVSPGERATLSCRASQSVSSSLAWYQQKPGQAPRLLIYDASTRATGIPARFSGSGSGTEFTLTISGLQSEDFAVYYCQQYNNWPPWTFGQGTKVEIK : ____
[A] 0.21
